The values you see were collected from paper PMC10251482.

Measured S.I. ATCC 30808 (selectivity index CC50/IC50), listed per entry.
Test system: N. fowleri ATCC 30808 trophozoites
Test: In vitro activity against trophozoite stage (alamarBlue), strain ATCC 30808
Format: cell-based, Naegleria fowleri
Details: CC50 murine macrophages / IC50 N. fowleri ATCC 30808

{"COMPOUND": "COC(=O)/C=C/OC(C#N)c1ccccc1 (stereo not drawn)", "STUDY SYSTEM": "N. fowleri ATCC 30808 trophozoites", "READOUT VALUE": 14.23}
{"COMPOUND": "COC(=O)/C=C/OC(C#N)c1ccc(C)cc1 (stereo not drawn)", "STUDY SYSTEM": "N. fowleri ATCC 30808 trophozoites", "READOUT VALUE": ">20"}
{"COMPOUND": "COC(=O)/C=C\\OC(C#N)c1ccc(C(F)(F)F)cc1 (stereo not drawn)", "STUDY SYSTEM": "N. fowleri ATCC 30808 trophozoites", "READOUT VALUE": ">9"}
{"COMPOUND": "CCCCCCCCCCCCCCCCOP(=O)([O-])OCC[N+](C)(C)C [Miltefosine, miltefosine, reference compound]", "STUDY SYSTEM": "N. fowleri ATCC 30808 trophozoites", "READOUT VALUE": 3.30}
{"COMPOUND": "COC(=O)/C=C/OC(C#N)c1cc(OC)c(OC)c(OC)c1 (stereo not drawn)", "STUDY SYSTEM": "N. fowleri ATCC 30808 trophozoites", "READOUT VALUE": ">6"}

stdin: Could you share which S.I. ATCC 30808 (selectivity index CC50/IC50) value was measured for COC(=O)/C=C/OC(C#N)c1ccccc1C (stereo not drawn) ?
stdout: >10

====

Test system: N. fowleri ATCC 30808 trophozoites
Assay: In vitro activity against trophozoite stage (alamarBlue), strain ATCC 30808
Format: cell-based, Naegleria fowleri
Settings: CC50 murine macrophages / IC50 N. fowleri ATCC 30808
OBSERVATION TYPE: S.I. ATCC 30808 (selectivity index CC50/IC50)

{"MOLECULE": "COC(=O)/C=C\\OC(C#N)c1ccc(C)c(C)c1 (stereo not drawn)", "READOUT VALUE": ">7"}
{"MOLECULE": "C[C@@H]1[C@H](O)[C@@H](C)/C=C/C=C/C=C/C=C/C=C/C=C/C=C/[C@H](O[C@@H]2O[C@H](C)[C@@H](O)[C@H](N)[C@@H]2O)C[C@@H]2O[C@](O)(C[C@@H](O)C[C@@H](O)[C@H](O)CC[C@@H](O)C[C@@H](O)CC(=O)O[C@H]1C)C[C@H](O)[C@H]2C(=O)O [Amphotericin B, reference compound]", "READOUT VALUE": "≥1652.89"}

stdin: Could you share which S.I. ATCC 30808 (selectivity index CC50/IC50) value was measured for COC(=O)/C=C/OC(C#N)c1ccc(F)cc1 (stereo not drawn) ?
stdout: >10

====

Measured pIC50, listed per entry.
System: N. fowleri ATCC 30808 cysts
Assay: In vitro activity against cyst stage (alamarBlue)
Type: cell-based
Details: Naegleria fowleri, ATCC30808, read 24 h after adding reagent, read-out: Cysticidal activity, N. fowleri ATCC 30808 IC50
Just so you know, pIC50 here is -log10 of the concentration in molar units; reply with that number alone.

Worked examples follow.
{"COMPOUND": "COC(=O)/C=C\\OC(C#N)c1ccc(C)c(C)c1 (stereo not drawn)", "STUDY SYSTEM": "N. fowleri ATCC 30808 cysts", "pIC50": 3.88}
{"COMPOUND": "COC(=O)/C=C/OC(C#N)c1ccccc1C (stereo not drawn)", "STUDY SYSTEM": "N. fowleri ATCC 30808 cysts", "pIC50": 3.99}

stdin: Could you share which pIC50 value was measured for COC(=O)/C=C/OC(C#N)c1ccc(C)cc1 (stereo not drawn) ?
stdout: 4.03
